Target: UniProt Q12809
Sequence (Q12809 whole entry): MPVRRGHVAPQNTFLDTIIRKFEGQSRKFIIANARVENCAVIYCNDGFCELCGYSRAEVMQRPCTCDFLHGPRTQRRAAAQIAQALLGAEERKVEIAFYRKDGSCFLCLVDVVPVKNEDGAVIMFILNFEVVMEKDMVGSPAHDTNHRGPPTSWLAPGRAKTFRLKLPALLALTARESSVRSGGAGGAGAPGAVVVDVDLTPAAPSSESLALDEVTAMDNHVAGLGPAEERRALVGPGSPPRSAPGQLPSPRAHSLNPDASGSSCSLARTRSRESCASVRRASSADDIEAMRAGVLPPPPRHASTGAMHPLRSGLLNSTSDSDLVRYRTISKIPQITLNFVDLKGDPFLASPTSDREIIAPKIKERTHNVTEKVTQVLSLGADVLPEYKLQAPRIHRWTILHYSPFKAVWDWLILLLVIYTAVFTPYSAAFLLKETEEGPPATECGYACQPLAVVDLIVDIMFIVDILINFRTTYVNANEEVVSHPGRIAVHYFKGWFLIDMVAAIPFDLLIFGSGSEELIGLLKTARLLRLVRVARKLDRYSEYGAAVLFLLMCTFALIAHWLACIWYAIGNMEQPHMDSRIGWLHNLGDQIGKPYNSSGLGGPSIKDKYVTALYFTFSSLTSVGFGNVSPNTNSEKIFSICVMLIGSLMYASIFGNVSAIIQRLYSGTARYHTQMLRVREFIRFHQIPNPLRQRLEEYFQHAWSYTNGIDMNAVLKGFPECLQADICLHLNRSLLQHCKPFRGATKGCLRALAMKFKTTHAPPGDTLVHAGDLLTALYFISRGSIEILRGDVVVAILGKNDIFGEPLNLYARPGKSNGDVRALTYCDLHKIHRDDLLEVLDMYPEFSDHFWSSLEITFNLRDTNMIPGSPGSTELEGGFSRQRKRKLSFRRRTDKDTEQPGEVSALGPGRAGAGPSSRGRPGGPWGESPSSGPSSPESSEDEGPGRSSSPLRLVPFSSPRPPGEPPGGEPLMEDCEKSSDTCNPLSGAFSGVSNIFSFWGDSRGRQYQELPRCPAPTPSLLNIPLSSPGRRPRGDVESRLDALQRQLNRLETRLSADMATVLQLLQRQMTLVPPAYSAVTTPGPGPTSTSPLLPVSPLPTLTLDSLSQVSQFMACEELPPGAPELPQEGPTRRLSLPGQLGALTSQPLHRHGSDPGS
Assay: Inhibition of hERG measured by fluorescence polarization assay
Type: toxicity
parameter.measured: IC20 (µM)
Numbers only, in µM.

Entry Cc1nc(-c2cnc(NC(C)C)n(C)c2=O)ccc1Oc1ccnc(-c2cnn(C)c2)c1 [VIMSELTINIB] has what IC20?
20

----------
Assay: Plasma protein binding in dog
Type: ADME, cell-free, Canis lupus familiaris
Settings: read-out: PPB (converted)
parameter.measured: fraction unbound

Data request, read-out fraction unbound, for `Cc1nc(-c2cnc(NC(C)C)n(C)c2=O)ccc1Oc1ccnc(-c2cnn(C)c2)c1`
0.033

----------
Molecular target: Mast/stem cell growth factor receptor Kit (Homo sapiens)
Sequence (P10721 whole entry): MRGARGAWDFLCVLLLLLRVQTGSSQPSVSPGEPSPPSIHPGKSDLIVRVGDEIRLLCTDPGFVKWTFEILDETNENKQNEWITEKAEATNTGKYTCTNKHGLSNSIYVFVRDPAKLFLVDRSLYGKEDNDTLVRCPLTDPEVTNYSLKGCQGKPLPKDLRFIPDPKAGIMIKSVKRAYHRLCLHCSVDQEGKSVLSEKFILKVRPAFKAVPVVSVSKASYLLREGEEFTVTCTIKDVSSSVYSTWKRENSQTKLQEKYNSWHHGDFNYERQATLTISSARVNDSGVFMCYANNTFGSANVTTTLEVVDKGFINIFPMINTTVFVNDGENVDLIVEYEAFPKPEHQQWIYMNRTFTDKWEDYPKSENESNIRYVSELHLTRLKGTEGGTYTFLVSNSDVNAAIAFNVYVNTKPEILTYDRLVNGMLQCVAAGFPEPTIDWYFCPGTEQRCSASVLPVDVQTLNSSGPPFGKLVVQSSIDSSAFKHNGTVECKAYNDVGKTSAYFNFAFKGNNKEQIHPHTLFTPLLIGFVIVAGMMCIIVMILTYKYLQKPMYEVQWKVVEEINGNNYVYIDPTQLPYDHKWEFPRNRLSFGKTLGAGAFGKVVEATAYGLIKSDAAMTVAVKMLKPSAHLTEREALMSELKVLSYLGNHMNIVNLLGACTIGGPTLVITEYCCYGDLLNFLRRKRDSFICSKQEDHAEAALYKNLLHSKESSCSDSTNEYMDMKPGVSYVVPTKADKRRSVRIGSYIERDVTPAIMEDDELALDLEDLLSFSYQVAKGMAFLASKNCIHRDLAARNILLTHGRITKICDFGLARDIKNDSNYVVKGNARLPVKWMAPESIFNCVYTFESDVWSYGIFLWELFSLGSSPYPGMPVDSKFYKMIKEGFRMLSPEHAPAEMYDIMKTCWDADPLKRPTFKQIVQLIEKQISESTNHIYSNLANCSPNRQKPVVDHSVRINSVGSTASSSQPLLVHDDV
parameter.measured: pIC50
Numbers only, as −log10 of the molar value.

Item Cc1nc(-c2cnc(NC(C)C)n(C)c2=O)ccc1Oc1ccnc(-c2cnn(C)c2)c1 [VIMSELTINIB] with Mast/stem cell growth factor receptor Kit (Homo sapiens) - pIC50?
5.80

----------
Test: Oral bioavailability in rat at 10 mg/kg
Type: ADME, organism-based
Conditions: in vivo
parameter.measured: bioavailability (%)
Give bare numbers, in %.

Consider the molecule shown here: Cc1nc(-c2cnc(NC(C)C)n(C)c2=O)ccc1Oc1ccnc(-c2cnn(C)c2)c1 [VIMSELTINIB] What is its recorded bioavailability?
76

----------
Assay: Metabolic stability in dog liver microsomes assessed as compound remaining at 60 mins
Type: ADME, Canis lupus familiaris, Microsome
Conditions: read-out: Stability
parameter.measured: remaining at 1 h
Show the value, then the unit it is measured in.

Could you share which remaining at 1 h value was measured for Cc1nc(-c2cnc(NC(C)C)n(C)c2=O)ccc1Oc1ccnc(-c2cnn(C)c2)c1 [VIMSELTINIB] ?
95.2%

----------
Exercise: state measured concentration at 144 h for each of the compounds provided.
Experiment: Plasma concentration in DBA/1 mouse at 7.5 mg/kg, po administered once daily for 6 days and measured at 6 hrs
Format: ADME, organism-based
Conditions: time 6 day
One number for each entry, in ng/mL.

{"given.smiles": "Cc1nc(-c2cnc(NC(C)C)n(C)c2=O)ccc1Oc1ccnc(-c2cnn(C)c2)c1", "result.units": "ng/mL", "concentration at 144 h": 2360}

State the recorded concentration at 144 h for this entry: `Cc1nc(-c2cnc(NC(C)C)[nH]c2=O)ccc1Oc1ccnc(-c2cnn(C)c2)c1`
451

----------
Assay: Inhibition of His-Glu tagged recombinant human KIT Q694-T753 deletion mutant (565 to 935 residues) measured by spectrophotometric analysis
pIC50: −log10 of the molar value.
Assign condition met to entries whose pIC50 meets or exceeds 6; assign condition not met to the rest.

Look over these answered cases.
{"given.smiles": "CCNc1ncc(-c2ccc(Oc3ccnc(-c4cnn(C)c4)c3)c(C)n2)c(=O)[nH]1", "label": "condition not met"}
{"given.smiles": "CNC(=O)c1cc(Oc2ccc(-c3cnc(NC(C)C)[nH]c3=O)nc2)ccn1", "label": "condition not met"}
{"given.smiles": "CNc1ncc(-c2ccc(Oc3ccnc(-c4cnn(C)c4)c3)c(C)n2)c(=O)[nH]1", "label": "condition met"}
{"given.smiles": "CCn1cc(-c2cc(Oc3ccc(-c4cnc(NC(C)C)[nH]c4=O)nc3C)ccn2)cn1", "label": "condition not met"}
{"given.smiles": "CC(=O)Nc1cc(Oc2ccc(-c3cnc(NC(C)C)[nH]c3=O)nc2C)ccn1", "label": "condition met"}
{"given.smiles": "Cc1nc(-c2cnc(NC3CC3)n(C)c2=O)ccc1Oc1ccnc(-c2cnn(C)c2)c1", "label": "condition not met"}
{"given.smiles": "Cc1nc(-c2cnc(N3CCCC3)[nH]c2=O)ccc1Oc1ccnc(-c2cnn(C)c2)c1", "label": "condition not met"}
{"given.smiles": "Cc1nc(-c2cnc(N3CCCCC3)[nH]c2=O)ccc1Oc1ccnc(-c2cnn(C)c2)c1", "label": "condition not met"}

In plain terms: is recorded pIC50 at least 6 for `Cc1nc(-c2cnc(N(C)C)[nH]c2=O)ccc1Oc1ccnc(-c2cnn(C)c2)c1` ?
condition not met

Form field: pIC50 at least 6? Entry: `Cc1nc(-c2cnc(NC(C)C)[nH]c2=O)ccc1Oc1ccnc(-c2cnn(C)c2)c1`
condition met

Given `Cc1cc(-c2cnc(N3CCCC3)[nH]c2=O)ncc1Oc1ccnc(-c2cnn(C)c2)c1` , state whether its pIC50 is at least 6.
condition met

# bool: pIC50 of `Cc1nc(-c2cnc(NC3CCOCC3)[nH]c2=O)ccc1Oc1ccnc(-c2cnn(C)c2)c1` >= 6
condition not met

Quick check, pIC50 >= 6? `Cc1nc(-c2cnc(N3CCOCC3)[nH]c2=O)ccc1Oc1ccnc(-c2cnn(C)c2)c1`
condition not met

----------
Experiment: Oral bioavailability in dog at 10 mg/kg
Format: ADME, organism-based, Canis lupus familiaris
Details: in vivo
parameter.measured: bioavailability (%)
One number for each entry, in %.

Any idea what bioavailability was measured for Cc1nc(-c2cnc(NC(C)C)n(C)c2=O)ccc1Oc1ccnc(-c2cnn(C)c2)c1 [VIMSELTINIB] ?
33

----------
Assay: Plasma protein binding in mouse
Format: ADME, cell-free
Settings: read-out: PPB (converted)
parameter.measured: fraction unbound
Answers are plain numbers.

Need fraction unbound, item `Cc1nc(-c2cnc(NC(C)C)n(C)c2=O)ccc1Oc1ccnc(-c2cnn(C)c2)c1`
0.026

----------
Assay: Metabolic stability in rat liver microsomes assessed as compound remaining at 60 mins
Type: ADME, Microsome
Settings: read-out: Stability
parameter.measured: remaining at 1 h (%)
One number for each entry, in %.

What does the data say about its remaining at 1 h? Entry: `Cc1nc(-c2cnc(NC(C)C)n(C)c2=O)ccc1Oc1ccnc(-c2cnn(C)c2)c1`
95.2

----------
Test: Plasma protein binding in human
Assay type: ADME, cell-free
Settings: read-out: PPB (converted)
parameter.measured: fraction unbound
Give bare numbers.

Report fraction unbound for Cc1nc(-c2cnc(NC(C)C)n(C)c2=O)ccc1Oc1ccnc(-c2cnn(C)c2)c1 [VIMSELTINIB] please.
0.033

----------
Experiment: Permeability across apical to basolateral side in human Caco-2 cells
Assay type: ADME, cell-based
Conditions: read-out: permeability
parameter.measured: Papp A→B

What measured Papp A→B goes with `Cc1nc(-c2cnc(NC(C)C)n(C)c2=O)ccc1Oc1ccnc(-c2cnn(C)c2)c1` ?
16 ×10⁻⁶ cm/s

----------
Give concentration at 144 h for every item shown.
Experiment: Plasma concentration in DBA/1 mouse at 7.5 mg/kg, po administered once daily for 6 days and measured at 24 hrs
Format: ADME, organism-based
Settings: time 6 day
Give bare numbers, in ng/mL.

{"given.smiles": "Cc1nc(-c2cnc(NC(C)C)[nH]c2=O)ccc1Oc1ccnc(-c2cnn(C)c2)c1", "concentration at 144 h / ng/mL": 17}

Now, please, on to the next molecule.
Given the entry `Cc1nc(-c2cnc(NC(C)C)n(C)c2=O)ccc1Oc1ccnc(-c2cnn(C)c2)c1` , report its measured concentration at 144 h.
1380

----------
Test: Tmax in dog at 10 mg/kg, po
Assay type: ADME, organism-based, Canis lupus familiaris
Conditions: in vivo
parameter.measured: Tmax
Please provide the amount together with its unit, number first.

What does the data say about its Tmax? Entry: `Cc1nc(-c2cnc(NC(C)C)n(C)c2=O)ccc1Oc1ccnc(-c2cnn(C)c2)c1`
1.67 h

----------
Experiment: Plasma concentration in DBA/1 mouse at 7.5 mg/kg, po administered once daily for 6 days and measured at 8 hrs
Format: ADME, organism-based
Details: time 6 day
parameter.measured: concentration at 144 h (µg/mL)
Answers are plain numbers, in µg/mL.

{"given.smiles": "Cc1nc(-c2cnc(NC(C)C)[nH]c2=O)ccc1Oc1ccnc(-c2cnn(C)c2)c1", "concentration at 144 h [µg/mL]": 0.36}

# lookup: concentration at 144 h of `Cc1nc(-c2cnc(NC(C)C)n(C)c2=O)ccc1Oc1ccnc(-c2cnn(C)c2)c1`
3.03

----------
Test: Inhibition of His-Glu tagged recombinant human KIT Q694-T753 deletion mutant (565 to 935 residues) measured by spectrophotometric analysis
Could you mark each record satisfied if its IC50 falls strictly under 1 µM, and not satisfied if it equals or exceeds it?

Solved entries (count: 2):
{"molecule": "CCNc1ncc(-c2ccc(Oc3ccnc(-c4ccc(C)nc4)c3)c(C)n2)c(=O)[nH]1", "label": "not satisfied"}
{"molecule": "CCNc1ncc(-c2ccc(Oc3ccnc(-n4cnc(C)c4)c3)c(C)n2)c(=O)[nH]1", "label": "not satisfied"}

Threshold test, IC50 < 1 µM: Cc1nc(-c2cnc(NC(C)C)n(C)c2=O)ccc1Oc1ccnc(-c2cnn(C)c2)c1 [VIMSELTINIB]
satisfied

Strictly below 1 µM in IC50? `Cc1nc(-c2cnc(NC3CC3)[nH]c2=O)ccc1Oc1ccnc(-c2cnn(C)c2)c1`
not satisfied

Field: below-cutoff. Rule: recorded IC50 strictly less than 1 µM. Subject: `CCNc1ncc(-c2ccc(Oc3ccnc(-c4cnn(C)c4)c3)cn2)c(=O)[nH]1`
satisfied

Source listed as ChEMBL document CHEMBL5104170.
